System: Ent. faecalis
PROTOCOL_DESCRIPTION: EDTA salt dilution test, MIC/MBC
Assay type: cell-based
CONDITION_DETAILS: Exhibit A1
Listed here are molecules together with their documented MBC, minimum concentration required to kill an entire population.
MEASUREMENT_NAME: MBC, minimum concentration required to kill an entire population (mg/mL)

>  <MOLECULE>
N.N.O=C(O)CN(CCN(CC(=O)O)CC(=O)O)CC(=O)O

>  <MEASUREMENT_UNITS>
mg/mL

>  <RELATION>
=

>  <MEASURED>
15

$$$$
>  <MOLECULE>
O=C([O-])CN(CCN(CC(=O)[O-])CC(=O)[O-])CC(=O)[O-].[Fe+3].[Na+] [Ferric-sodium salt EDTA]

>  <MEASUREMENT_UNITS>
mg/mL

>  <RELATION>
>

>  <MEASURED>
30

$$$$
>  <MOLECULE>
O=C([O-])CN(CCN(CC(=O)[O-])CC(=O)[O-])CC(=O)[O-].[Mg+2].[Na+].[Na+] [Magnesium disodium EDTA]

>  <MEASUREMENT_UNITS>
mg/mL

>  <RELATION>
>

>  <MEASURED>
30

$$$$
>  <MOLECULE>
O=C([O-])CN(CCN(CC(=O)[O-])CC(=O)[O-])CC(=O)[O-].[Cu+2].[Na+].[Na+] [Cupric disodium EDTA]

>  <MEASUREMENT_UNITS>
mg/mL

>  <RELATION>
<

>  <MEASURED>
0.5

$$$$
>  <MOLECULE>
O=C([O-])CN(CCN(CC(=O)O)CC(=O)O)CC(=O)[O-].[K+].[K+]

>  <MEASUREMENT_UNITS>
mg/mL

>  <RELATION>
=

>  <MEASURED>
15

$$$$
>  <MOLECULE>
O=C([O-])CN(CCN(CC(=O)[O-])CC(=O)[O-])CC(=O)[O-].[Na+].[Na+].[Na+].[Na+] [Tetrasodium EDTA]

>  <MEASUREMENT_UNITS>
mg/mL

>  <RELATION>
=

>  <MEASURED>
10

$$$$
